All values here come from PubChem BioAssay (NCI).

# Test system: ACHN renal
# METHOD NOTES: NCI tumour cell line growth inhibition, 48 h
REPORTED PROPERTY: GI50

If you can, please state the reported GI50 value of Nc1c(O)c(S(=O)(=O)O)c(O)c2c1C(=O)c1ccccc1C2=O .
2.43 µM

If you can, please state the reported GI50 value of CC(C)(C)n1cc(-c2ccnc(NCCNS(=O)(=O)c3cccc4ccccc34)c2)c(-c2cccc(F)c2)n1 .
18.9 µM

If you can, please state the reported GI50 value of C[C@@]12CCC[C@@](C)(C(=O)O)C1CC[C@@]13CC(=O)[C@@](CO)(CCC12)C3 (stereo partly specified) .
> 100 µM

If you can, please state the reported GI50 value of COc1cccc2c(Nc3ccc(C(=O)NCCN(C)C)cc3)cc(-c3ccccc3)nc12 .
17.6 µM

If you can, please state the reported GI50 value of COC1CCC(n2c([C@@H]3CCCC(=O)N3c3ccc(F)c(F)c3)nc3cc(-c4c(C)noc4C)ccc32)CC1 (stereo partly specified) .
4.78 µM

If you can, please state the reported GI50 value of Clc1ccc(-c2cn(-c3ccccc3)c(-c3ccccc3)n2)c(Cl)c1 .
2.22 µM

If you can, please state the reported GI50 value of CC1(C)CC[C@]2(C(=O)O)CC[C@]3(C)[C@H](CC[C@@H]4[C@@]5(C)CCC(=O)C(C)(C)[C@@H]5CC[C@]43C)[C@H]2[C@H]1OC(=O)C(F)(F)F .
13.3 µM

If you can, please state the reported GI50 value of C=CCNc1cccc2c1C(=O)c1ccccc1C2(O)CC=C (stereo unspecified) .
28.5 µM

If you can, please state the reported GI50 value of COc1cccc(C2C(C#N)=C(N)Oc3cc(OC)ccc32)c1 (stereo unspecified) .
0.138 µM

If you can, please state the reported GI50 value of Cc1[nH]nc(C(=O)Nc2n[nH]c3ccccc23)c1[N+](=O)[O-] .
> 100 µM

If you can, please state the reported GI50 value of CC(C)c1ccc(O)c(=O)cc1 .
4.46 µM

If you can, please state the reported GI50 value of Cc1ccccc1NC(=O)c1sc2nc3c(cc2c1N)C(=O)CCC3 .
15.8 µM

If you can, please state the reported GI50 value of O=C1C(=O)c2c(nc3ncccn23)-c2ccccc21 .
0.174 µM

If you can, please state the reported GI50 value of COc1ccc2sc3c(NCCCNCCO)nc4ccccc4c3c(=O)c2c1 .
1.63 µM

If you can, please state the reported GI50 value of C#CC#CC#CC#CC#CC#CC#CC#CCC1OC[C@H](COC(=O)O[C@@H](C(=O)O[C@H]2C[C@@]3(O)[C@@H](OC(=O)c4ccccc4)[C@@H]4[C@]5(OC(C)=O)CO[C@@H]5C[C@H](O)[C@@]4(C)C(=O)[C@H](OC(C)=O)C(=C2C)C3(C)C)[C@@H](NC(=O)c2ccccc2)c2ccccc2)O1 (stereo partly specified) .
> 33.3 µM

If you can, please state the reported GI50 value of COc1ccc(/C=C/C(c2cc(OC)c(OC)c(OC)c2)n2cncn2)cc1O (stereo unspecified) .
0.0578 µM
